test system: leukemia L1210 cells; test: Leukemia L1210 in mice: ascitic fluid and survival (Example 14); details: leukemia L1210; number of injection 0
propertyMeasured: Accumulation of ascitic (weight gain, %)

NCCSSCCN [0.1% cystamine, 2,2′-Dithio-bis[ethylamine]]	0.42
O=c1[nH]cnc2c1ncn2[C@@H]1O[C@H](CO)[C@@H](O)[C@H]1O [0.1% inosine, hypoxanthine-9-D-ribofuranoside]	0.56
NCCSSCCNC(=O)CNC(=O)C(CSSCC(NC(=O)CCC(N)C(=O)O)C(=O)NCC(=O)O)NC(=O)CCC(N)C(=O)O (centres unmarked)	0.77
OO [0.003% H2O2, hydrogen peroxide]	0.77
C[S+](C)[O-]	0.51

Recorded values, source patent US6492329B1.
